# Test system: LNCaP
# assay-details: MTT chemosensitivity assay, LNCaP
# Format: cell-based, human
# measurement-context: Homo sapiens, LNCaP, 96 h exposure, ± SD, at least three independent experiments
One threshold, 100 µM, splits the recorded IC50 values: lower ones are True, equal or higher ones are False.

Cc1cc(C=O)ccc1N1CCCC1 = False
O=Cc1ccc(N2CCOCC2)c(Br)c1 = True
CCCN(CCC)c1ccc(C=O)cc1[N+](=O)[O-] = True
O=Cc1ccc(-n2ccnc2)cc1 = False
CCN(CC)c1ccc(C=O)cc1[N+](=O)[O-] = False
CC(C)Oc1ccc(C=O)cc1 = False
CCCN(CCC)c1ccc(C=O)cc1Br = True
CCN(CC)c1ccc(C=O)cc1 [DEAB, 4-(Diethylamino)benzaldehyde, reference compound] = False
